Settings: in ethanol, 303.2 K
QUANTITY: solubility (mole fraction)

>>> print(df.to_string())
              compound_structure_string                    quantity  readout_value
0  COC(=O)[C@@H](N)Cc1c[nH]c2ccccc12.Cl  solubility (mole fraction)        0.00812

---

Conditions: in acetonitrile, 318.2 K
QUANTITY: solubility (mole fraction)

>>> print(df.to_string())
              compound_structure_string  readout_value
0  COC(=O)[C@@H](N)Cc1c[nH]c2ccccc12.Cl       0.000147

---

Settings: in sec-butanol, 288.2 K
QUANTITY: solubility (mole fraction)

>>> print(df.to_string())
              compound_structure_string  readout_value
0  COC(=O)[C@@H](N)Cc1c[nH]c2ccccc12.Cl        0.00135

---

Conditions: in sec-butanol, 318.2 K
QUANTITY: solubility (mole fraction)

In [3]: df
Out[3]:
              compound_structure_string  readout_value
0  COC(=O)[C@@H](N)Cc1c[nH]c2ccccc12.Cl        0.00251

---

Settings: in 2-butanone, 288.2 K
QUANTITY: solubility (mole fraction)

              compound_structure_string  readout_value
0  COC(=O)[C@@H](N)Cc1c[nH]c2ccccc12.Cl       0.000295

---

Conditions: in n-butanol, 308.2 K
QUANTITY: solubility (mole fraction)

>>> df
              compound_structure_string  readout_value
0  COC(=O)[C@@H](N)Cc1c[nH]c2ccccc12.Cl        0.00304

---

Details: in n-propanol, 318.2 K
QUANTITY: solubility (mole fraction)

              compound_structure_string                    quantity  readout_value
0  COC(=O)[C@@H](N)Cc1c[nH]c2ccccc12.Cl  solubility (mole fraction)        0.00512

---

Conditions: in sec-butanol, 323.2 K
QUANTITY: solubility (mole fraction)

>>> print(df.to_string())
              compound_structure_string  readout_value
0  COC(=O)[C@@H](N)Cc1c[nH]c2ccccc12.Cl        0.00296

---

Conditions: in n-propanol, 308.2 K
QUANTITY: solubility (mole fraction)

In [3]: df
Out[3]:
              compound_structure_string                    quantity  readout_value
0  COC(=O)[C@@H](N)Cc1c[nH]c2ccccc12.Cl  solubility (mole fraction)        0.00431

---

Conditions: in n-butanol, 303.2 K
QUANTITY: solubility (mole fraction)

              compound_structure_string                    quantity  readout_value
0  COC(=O)[C@@H](N)Cc1c[nH]c2ccccc12.Cl  solubility (mole fraction)        0.00281

---

Settings: in acetone, 318.2 K
QUANTITY: solubility (mole fraction)

>>> print(df.to_string())
              compound_structure_string                    quantity  readout_value
0  COC(=O)[C@@H](N)Cc1c[nH]c2ccccc12.Cl  solubility (mole fraction)        0.00219

---

Details: in ethyl acetate, 283.2 K
QUANTITY: solubility (mole fraction)

>>> df
              compound_structure_string                    quantity  readout_value
0  COC(=O)[C@@H](N)Cc1c[nH]c2ccccc12.Cl  solubility (mole fraction)       4.01e-05

---

Conditions: in sec-butanol, 313.2 K
QUANTITY: solubility (mole fraction)

              compound_structure_string  readout_value
0  COC(=O)[C@@H](N)Cc1c[nH]c2ccccc12.Cl        0.00227

---

Details: in n-butanol, 283.2 K
QUANTITY: solubility (mole fraction)

              compound_structure_string  readout_value
0  COC(=O)[C@@H](N)Cc1c[nH]c2ccccc12.Cl        0.00221

---

Conditions: in n-butanol, 318.2 K
QUANTITY: solubility (mole fraction)

>>> print(df.to_string())
              compound_structure_string                    quantity  readout_value
0  COC(=O)[C@@H](N)Cc1c[nH]c2ccccc12.Cl  solubility (mole fraction)         0.0035

---

Settings: in isopropanol, 298.2 K
QUANTITY: solubility (mole fraction)

>>> print(df.to_string())
              compound_structure_string                    quantity  readout_value
0  COC(=O)[C@@H](N)Cc1c[nH]c2ccccc12.Cl  solubility (mole fraction)        0.00157

---

Conditions: in 2-butanone, 298.2 K
QUANTITY: solubility (mole fraction)

>>> print(df.to_string())
              compound_structure_string  readout_value
0  COC(=O)[C@@H](N)Cc1c[nH]c2ccccc12.Cl       0.000401

---

Settings: in isobutanol, 318.2 K
QUANTITY: solubility (mole fraction)

>>> print(df.to_string())
              compound_structure_string                    quantity  readout_value
0  COC(=O)[C@@H](N)Cc1c[nH]c2ccccc12.Cl  solubility (mole fraction)        0.00326

---

Conditions: in ethanol, 293.2 K
QUANTITY: solubility (mole fraction)

In [3]: df
Out[3]:
              compound_structure_string  readout_value
0  COC(=O)[C@@H](N)Cc1c[nH]c2ccccc12.Cl        0.00683

---

Settings: in acetone, 303.2 K
QUANTITY: solubility (mole fraction)

              compound_structure_string  readout_value
0  COC(=O)[C@@H](N)Cc1c[nH]c2ccccc12.Cl       0.000793

---

Details: in sec-butanol, 293.2 K
QUANTITY: solubility (mole fraction)

>>> print(df.to_string())
              compound_structure_string                    quantity  readout_value
0  COC(=O)[C@@H](N)Cc1c[nH]c2ccccc12.Cl  solubility (mole fraction)        0.00149

---

Conditions: in acetonitrile, 298.2 K
QUANTITY: solubility (mole fraction)

              compound_structure_string  readout_value
0  COC(=O)[C@@H](N)Cc1c[nH]c2ccccc12.Cl       6.55e-05

---

Conditions: in acetone, 313.2 K
QUANTITY: solubility (mole fraction)

>>> print(df.to_string())
              compound_structure_string  readout_value
0  COC(=O)[C@@H](N)Cc1c[nH]c2ccccc12.Cl        0.00144

---

Settings: in ethanol, 323.2 K
QUANTITY: solubility (mole fraction)

In [3]: df
Out[3]:
              compound_structure_string  readout_value
0  COC(=O)[C@@H](N)Cc1c[nH]c2ccccc12.Cl          0.012

---

Details: in water, 318.2 K
QUANTITY: solubility (mole fraction)

>>> print(df.to_string())
              compound_structure_string  readout_value
0  COC(=O)[C@@H](N)Cc1c[nH]c2ccccc12.Cl          0.024

---

Settings: in water, 323.2 K
QUANTITY: solubility (mole fraction)

>>> df
              compound_structure_string  readout_value
0  COC(=O)[C@@H](N)Cc1c[nH]c2ccccc12.Cl         0.0278

---

Conditions: in 2-butanone, 308.2 K
QUANTITY: solubility (mole fraction)

In [3]: df
Out[3]:
              compound_structure_string  readout_value
0  COC(=O)[C@@H](N)Cc1c[nH]c2ccccc12.Cl        0.00058

---

Conditions: in sec-butanol, 283.2 K
QUANTITY: solubility (mole fraction)

>>> print(df.to_string())
              compound_structure_string  readout_value
0  COC(=O)[C@@H](N)Cc1c[nH]c2ccccc12.Cl         0.0013

---

Details: in isobutanol, 288.2 K
QUANTITY: solubility (mole fraction)

>>> print(df.to_string())
              compound_structure_string                    quantity  readout_value
0  COC(=O)[C@@H](N)Cc1c[nH]c2ccccc12.Cl  solubility (mole fraction)        0.00142

---

Details: in n-propanol, 293.2 K
QUANTITY: solubility (mole fraction)

              compound_structure_string  readout_value
0  COC(=O)[C@@H](N)Cc1c[nH]c2ccccc12.Cl        0.00348

---

Settings: in ethyl acetate, 298.2 K
QUANTITY: solubility (mole fraction)

>>> df
              compound_structure_string                    quantity  readout_value
0  COC(=O)[C@@H](N)Cc1c[nH]c2ccccc12.Cl  solubility (mole fraction)       7.36e-05
